tested on: COLO 205; test: Cytotoxicity against human COLO205 cells after 72 hrs by MTT assay; assay type: functional, cell-based; settings: COLO 205, 72 h
pIC50: −log10 of the molar value.

Smiles text: COc1ccc(C(=O)c2cc(OC)c(OC)c(OC)c2)cc1N
pIC50: 6.70

Smiles text: COc1cccc(/C=C/C(=O)Nc2cc(C(=O)c3cc(OC)c(OC)c(OC)c3)cc(OC)c2OC)c1
pIC50: 4.97

Smiles text: COc1ccc(/C=C/C(=O)Nc2cc(C(=O)c3cc(OC)c(OC)c(OC)c3)cc(OC)c2OC)cc1OC
pIC50: 5.24

Smiles text: COc1cccc(/C=C/C(=O)Nc2cc(OC)c(OC)c(OC)c2)c1
pIC50: 5.38

Smiles text: COc1ccc(C(=O)c2cc(OC)c(OC)c(OC)c2)cc1NC(=O)/C=C/c1ccc(F)c(F)c1
pIC50: 5.22

====

system: PC-3; test: Cytotoxicity against human PC3 cells after 72 hrs by MTT assay; format: functional, cell-based; settings: PC-3, 72 h
pIC50: −log10 of the molar value.

Smiles text: COc1ccc(/C=C/C(=O)Nc2cc(C(=O)c3cc(OC)c(OC)c(OC)c3)cc(OC)c2OC)cc1N
pIC50: 4.95

Smiles text: COc1ccc(C(=O)c2cc(OC)c(OC)c(OC)c2)cc1NC(=O)/C=C/c1ccc(F)cc1
pIC50: 5.49

Smiles text: C#CCOc1cccc(/C=C/C(=O)Nc2cc(C(=O)c3cc(OC)c(OC)c(OC)c3)cc(OC)c2OC)c1
pIC50: 5.00

Smiles text: COc1cccc(/C=C/C(=O)Nc2cc(OC)c(OC)c(OC)c2)c1
pIC50: 5.68

Smiles text: COc1cc(C(=O)c2cc(OC)c(OC)c(OC)c2)cc(NC(=O)/C=C/c2cc(OC)c(OC)c(OC)c2)c1OC
pIC50: 5.32

Smiles text: COc1ccc(/C=C/C(=O)Nc2cc(C(=O)c3cc(OC)c(OC)c(OC)c3)cc(OC)c2OC)cc1OC
pIC50: 5.27

====

system: PC-3; experiment: Cytotoxicity against human PC3 cells after 72 hrs by MTT assay; format: functional, cell-based; conditions: PC-3, 72 h
pIC50: −log10 of the molar value.
Reported pIC50 values for the following compounds.
Property name: pIC50

Smiles text: C#CCOc1cccc(/C=C/C(=O)Nc2cc(C(=O)c3cc(OC)c(OC)c(OC)c3)ccc2OC)c1
Test target: PC-3
Recorded result: 4.88
//
Smiles text: COc1ccc(C(=O)c2cc(OC)c(OC)c(OC)c2)cc1N
Test target: PC-3
Recorded result: 5.96
//
Smiles text: COc1ccc(C(=O)c2cc(OC)c(OC)c(OC)c2)cc1NC(=O)/C=C/c1cc(OC)c(OC)c(OC)c1
Test target: PC-3
Recorded result: 5.41
//
Smiles text: COc1ccc(C(=O)c2cc(OC)c(OC)c(OC)c2)cc1NC(=O)/C=C/c1ccc(N)cc1
Test target: PC-3
Recorded result: 4.80
//
Smiles text: COc1ccc(/C=C/C(=O)Nc2cc(C(=O)c3cc(OC)c(OC)c(OC)c3)cc(OC)c2OC)cc1
Test target: PC-3
Recorded result: 5.20
//
Smiles text: COc1ccc(C(=O)c2cc(OC)c(OC)c(OC)c2)cc1NC(=O)/C=C/c1ccc(OC)c(OC)c1
Test target: PC-3
Recorded result: 5.12
//
Smiles text: COc1ccc(C(=O)c2cc(OC)c(OC)c(OC)c2)cc1NC(=O)/C=C/c1ccc(F)c(F)c1
Test target: PC-3
Recorded result: 5.08
//
Smiles text: COc1ccc(C(=O)c2cc(OC)c(OC)c(OC)c2)cc1NC(=O)/C=C/c1cccc(OC(F)(F)F)c1
Test target: PC-3
Recorded result: 5.11
//
Smiles text: COc1cc(C(=O)c2cc(OC)c(OC)c(OC)c2)cc(NC(=O)/C=C/c2ccc(F)cc2)c1OC
Test target: PC-3
Recorded result: 5.39
//
Smiles text: COc1cccc(/C=C/C(=O)Nc2cc(C(=O)c3cc(OC)c(OC)c(OC)c3)ccc2OC)c1
Test target: PC-3
Recorded result: 5.33
//
Smiles text: COc1cc(C(=O)c2cc(OC)c(OC)c(OC)c2)cc(N)c1OC
Test target: PC-3
Recorded result: 5.13
//
Smiles text: COc1ccc(C(=O)c2cc(OC)c(OC)c(OC)c2)cc1NC(=O)/C=C/c1ccc([N+](=O)[O-])cc1
Test target: PC-3
Recorded result: 4.98
//
Smiles text: COc1ccc(C(=O)c2cc(OC)c(OC)c(OC)c2)cc1NC(=O)/C=C/c1ccc(C(F)(F)F)cc1
Test target: PC-3
Recorded result: 5.46
//
Smiles text: COc1cc(/C=C/C(=O)Nc2cc(C(=O)c3cc(OC)c(OC)c(OC)c3)ccc2OC)ccc1F
Test target: PC-3
Recorded result: 4.85
//
Smiles text: COc1cccc(/C=C/C(=O)Nc2cc(C(=O)c3cc(OC)c(OC)c(OC)c3)cc(OC)c2OC)c1
Test target: PC-3
Recorded result: 4.88
//
Smiles text: COc1ccc(/C=C/C(=O)Nc2cc(C(=O)c3cc(OC)c(OC)c(OC)c3)ccc2OC)cc1
Test target: PC-3
Recorded result: 4.95
//
Smiles text: COc1cc(C(=O)c2cc(OC)c(OC)c(OC)c2)cc(NC(=O)/C=C/c2cc(F)c(F)c(F)c2)c1OC
Test target: PC-3
Recorded result: 5.13
//
Smiles text: COc1cc(C(=O)c2cc(OC)c(OC)c(OC)c2)cc(NC(=O)/C=C/c2ccc(C(F)(F)F)cc2)c1OC
Test target: PC-3
Recorded result: 5.38

====

biological target: Tubulin; assay: Inhibition of tubulin (unknown origin) polymerization measured for 1 hr by fluorescence assay in presence of GTP
Reported IC50 values for the following compounds.
Property name: IC50

Smiles text: COc1ccc(C(=O)c2cc(OC)c(OC)c(OC)c2)cc1NC(=O)/C=C/c1ccc(F)cc1
Recorded result: 600 nM

Smiles text: COc1ccc(C(=O)c2cc(OC)c(OC)c(OC)c2)cc1NC(=O)/C=C/c1ccc(C(F)(F)F)cc1
Recorded result: 700 nM

Smiles text: COc1ccc(C(=O)c2cc(OC)c(OC)c(OC)c2)cc1N
Recorded result: 600 nM

====

test system: B16; assay: Cytotoxicity against mouse B16 cells after 72 hrs by MTT assay; format: functional, cell-based; details: B16, 72 h

Smiles text: COc1ccc(C(=O)c2cc(OC)c(OC)c(OC)c2)cc1NC(=O)/C=C/c1ccc(C(F)(F)F)cc1
IC50: 0.1 µM
//
Smiles text: COc1ccc(C(=O)c2cc(OC)c(OC)c(OC)c2)cc1NC(=O)/C=C/c1ccc(F)c(F)c1
IC50: 6.5 µM
//
Smiles text: COc1ccc(/C=C/C(=O)Nc2cc(C(=O)c3cc(OC)c(OC)c(OC)c3)cc(OC)c2OC)cc1OC
IC50: 1.3 µM
//
Smiles text: COc1cc(/C=C/C(=O)Nc2cc(C(=O)c3cc(OC)c(OC)c(OC)c3)ccc2OC)ccc1F
IC50: 16.3 µM

====

Reported IC50 values for the following compounds.
tested on: COLO 205; experiment: Cytotoxicity against human COLO205 cells after 72 hrs by MTT assay; format: functional, cell-based; conditions: COLO 205, 72 h

Smiles text: COc1ccc(C(=O)c2cc(OC)c(OC)c(OC)c2)cc1NC(=O)/C=C/c1ccc(OC)c(OC)c1
IC50 [µM]: 8.2
--
Smiles text: COc1cccc(/C=C/C(=O)Nc2cc(C(=O)c3cc(OC)c(OC)c(OC)c3)ccc2OC)c1
IC50 [µM]: 5.1
--
Smiles text: COc1ccc(C(=O)c2cc(OC)c(OC)c(OC)c2)cc1NC(=O)/C=C/c1ccc(C(F)(F)F)cc1
IC50 [µM]: 2.6
--
Smiles text: C#CCOc1cccc(/C=C/C(=O)Nc2cc(C(=O)c3cc(OC)c(OC)c(OC)c3)ccc2OC)c1
IC50 [µM]: 13.4
--
Smiles text: COc1cc(/C=C/C(=O)Nc2cc(C(=O)c3cc(OC)c(OC)c(OC)c3)ccc2OC)ccc1F
IC50 [µM]: 11.8
--
Smiles text: C#CCOc1cccc(/C=C/C(=O)Nc2cc(C(=O)c3cc(OC)c(OC)c(OC)c3)cc(OC)c2OC)c1
IC50 [µM]: 11.2

====

test system: B16; assay: Cytotoxicity against mouse B16 cells after 72 hrs by MTT assay; type: functional, cell-based; settings: B16, 72 h

Smiles text: COc1ccc(C(=O)c2cc(OC)c(OC)c(OC)c2)cc1NC(=O)/C=C/c1ccc(F)cc1
Measurement units: µM
IC50: 0.4

Smiles text: COc1cc(C(=O)c2cc(OC)c(OC)c(OC)c2)cc(NC(=O)/C=C/c2cc(OC)c(OC)c(OC)c2)c1OC
Measurement units: µM
IC50: 2.5

Smiles text: C#CCOc1cccc(/C=C/C(=O)Nc2cc(C(=O)c3cc(OC)c(OC)c(OC)c3)cc(OC)c2OC)c1
Measurement units: µM
IC50: 5.1

Smiles text: COc1ccc(C(=O)c2cc(OC)c(OC)c(OC)c2)cc1NC(=O)/C=C/c1ccc(N)cc1
Measurement units: µM
IC50: 7.9

Smiles text: COc1ccc(C(=O)c2cc(OC)c(OC)c(OC)c2)cc1N
Measurement units: µM
IC50: 0.03

Smiles text: COc1cccc(/C=C/C(=O)Nc2cc(C(=O)c3cc(OC)c(OC)c(OC)c3)ccc2OC)c1
Measurement units: µM
IC50: 3.1

Smiles text: C#CCOc1cccc(/C=C/C(=O)Nc2cc(C(=O)c3cc(OC)c(OC)c(OC)c3)ccc2OC)c1
Measurement units: µM
IC50: 12.2

Smiles text: COc1cc(C(=O)c2cc(OC)c(OC)c(OC)c2)cc(NC(=O)/C=C/c2ccc(C(F)(F)F)cc2)c1OC
Measurement units: µM
IC50: 3.3

Smiles text: COc1ccc(C(=O)c2cc(OC)c(OC)c(OC)c2)cc1NC(=O)/C=C/c1cccc(OC(F)(F)F)c1
Measurement units: µM
IC50: 6.3

Smiles text: COc1ccc(/C=C/C(=O)Nc2cc(C(=O)c3cc(OC)c(OC)c(OC)c3)ccc2OC)cc1
Measurement units: µM
IC50: 8.7

Smiles text: COc1ccc(C(=O)c2cc(OC)c(OC)c(OC)c2)cc1NC(=O)/C=C/c1ccc(OC)c(OC)c1
Measurement units: µM
IC50: 6.3

Smiles text: COc1ccc(C(=O)c2cc(OC)c(OC)c(OC)c2)cc1NC(=O)/C=C/c1ccc([N+](=O)[O-])cc1
Measurement units: µM
IC50: 6.4

Smiles text: COc1cccc(/C=C/C(=O)Nc2cc(OC)c(OC)c(OC)c2)c1
Measurement units: µM
IC50: 8.5

Smiles text: COc1ccc(/C=C/C(=O)Nc2cc(C(=O)c3cc(OC)c(OC)c(OC)c3)cc(OC)c2OC)cc1
Measurement units: µM
IC50: 9.4

Smiles text: COc1ccc(/C=C/C(=O)Nc2cc(C(=O)c3cc(OC)c(OC)c(OC)c3)cc(OC)c2OC)cc1N
Measurement units: µM
IC50: 12.7

Smiles text: COc1cc(C(=O)c2cc(OC)c(OC)c(OC)c2)cc(NC(=O)/C=C/c2cc(F)c(F)c(F)c2)c1OC
Measurement units: µM
IC50: 5.2

Smiles text: COc1cc(C(=O)c2cc(OC)c(OC)c(OC)c2)cc(NC(=O)/C=C/c2ccc(F)cc2)c1OC
Measurement units: µM
IC50: 0.9

Smiles text: COc1cc(C(=O)c2cc(OC)c(OC)c(OC)c2)cc(N)c1OC
Measurement units: µM
IC50: 12.5

Smiles text: COc1cccc(/C=C/C(=O)Nc2cc(C(=O)c3cc(OC)c(OC)c(OC)c3)cc(OC)c2OC)c1
Measurement units: µM
IC50: 6.7

Smiles text: COc1ccc(C(=O)c2cc(OC)c(OC)c(OC)c2)cc1NC(=O)/C=C/c1cc(OC)c(OC)c(OC)c1
Measurement units: µM
IC50: 1.2

Reference for the values: ChEMBL document CHEMBL3259744
